# assay-target: Rho-associated protein kinase 2 (Homo sapiens) (UniProt O75116)
# Sequence (O75116 whole entry, looked up): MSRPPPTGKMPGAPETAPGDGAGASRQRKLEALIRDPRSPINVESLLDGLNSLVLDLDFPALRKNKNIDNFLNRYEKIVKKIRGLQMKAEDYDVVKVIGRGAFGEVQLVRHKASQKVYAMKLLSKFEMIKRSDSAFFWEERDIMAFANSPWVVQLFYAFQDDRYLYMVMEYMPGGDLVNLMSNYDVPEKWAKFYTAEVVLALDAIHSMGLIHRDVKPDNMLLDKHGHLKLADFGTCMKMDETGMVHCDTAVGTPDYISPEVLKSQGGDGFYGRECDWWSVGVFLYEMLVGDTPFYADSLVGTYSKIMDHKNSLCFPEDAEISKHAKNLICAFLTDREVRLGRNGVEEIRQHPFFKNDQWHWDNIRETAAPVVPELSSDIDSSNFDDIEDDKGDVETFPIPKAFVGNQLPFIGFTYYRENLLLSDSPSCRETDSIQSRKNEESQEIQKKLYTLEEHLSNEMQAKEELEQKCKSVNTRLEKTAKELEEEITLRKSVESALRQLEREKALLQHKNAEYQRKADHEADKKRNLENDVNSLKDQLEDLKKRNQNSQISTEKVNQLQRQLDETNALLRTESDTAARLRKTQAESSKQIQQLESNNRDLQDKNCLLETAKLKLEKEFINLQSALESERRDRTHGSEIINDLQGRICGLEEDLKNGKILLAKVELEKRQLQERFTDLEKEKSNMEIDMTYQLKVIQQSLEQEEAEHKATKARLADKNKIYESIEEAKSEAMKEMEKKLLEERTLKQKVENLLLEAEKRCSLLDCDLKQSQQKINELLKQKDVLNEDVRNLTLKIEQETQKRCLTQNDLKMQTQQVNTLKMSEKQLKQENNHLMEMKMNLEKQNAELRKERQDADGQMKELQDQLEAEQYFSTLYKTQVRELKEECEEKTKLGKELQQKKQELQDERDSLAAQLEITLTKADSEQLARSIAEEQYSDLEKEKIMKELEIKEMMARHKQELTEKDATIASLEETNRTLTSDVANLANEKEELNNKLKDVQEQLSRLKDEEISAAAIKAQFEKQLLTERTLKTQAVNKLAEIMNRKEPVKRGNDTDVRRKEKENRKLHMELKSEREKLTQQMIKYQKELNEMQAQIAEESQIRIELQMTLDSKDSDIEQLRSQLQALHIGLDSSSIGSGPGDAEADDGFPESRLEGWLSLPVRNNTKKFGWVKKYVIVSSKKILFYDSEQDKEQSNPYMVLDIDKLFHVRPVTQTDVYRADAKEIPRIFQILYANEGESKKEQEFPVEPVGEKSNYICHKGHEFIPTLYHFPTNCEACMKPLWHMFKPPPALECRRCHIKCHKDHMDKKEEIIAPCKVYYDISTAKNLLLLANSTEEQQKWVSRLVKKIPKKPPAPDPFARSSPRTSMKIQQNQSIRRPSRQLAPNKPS
# condition-description: at 0.1 µM
reported-property: inhibition (%)
Hi! Could you send only the number? It should be in %, unit omitted.

structure-smiles: CC1(C)CC(n2cnc(-c3ccc(F)cc3)c2-c2ccnc(N)n2)CC(C)(C)N1
assay-target: Rho-associated protein kinase 2 (Homo sapiens) (UniProt O75116)
inhibition (%): 1.54

structure-smiles: Cc1ccc(-c2cc3c(NC(=O)C4CC4)ncnc3o2)cc1
assay-target: Rho-associated protein kinase 2 (Homo sapiens) (UniProt O75116)
inhibition (%): 2.81

structure-smiles: CCOc1ccc2c(-c3ccnc(Nc4cc(OC)cc(C(F)(F)F)c4)n3)cnn2n1
assay-target: Rho-associated protein kinase 2 (Homo sapiens) (UniProt O75116)
inhibition (%): 0.14

structure-smiles: COc1cc(N2CCN(C(C)C)CC2)ccc1Nc1nc(Nc2cccc(F)c2C(=O)O)c2cc[nH]c2n1
assay-target: Rho-associated protein kinase 2 (Homo sapiens) (UniProt O75116);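 also: values are averaged inhibition readings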
inhibition (%): 2.05

Req: Data request, read-out inhibition, for CN(c1ccc(NC(=O)NCCN2CCOCC2)cc1)c1ccnc(Nc2ccc(CS(C)(=O)=O)cc2)n1
Resp: 4.87

Req: Data request, read-out inhibition, for CCS(=O)(=O)c1ccc(OC)c(Nc2ncc(-c3cccc(F)c3)o2)c1
Resp: 3.63

Req: Data request, read-out inhibition, for NS(=O)(=O)c1cccc(N/C=C2\C(=O)Nc3ccccc32)c1
Resp: 2.91

Req: Data request, read-out inhibition, for Cn1c(-c2nonc2N)nc2cnccc21
Resp: 20

Req: Data request, read-out inhibition, for O=C1Nc2ccccc2/C1=C1\CCc2cc(O)ccc21
Resp: 2.95

Req: Data request, read-out inhibition, for O=C(O[C@H]1CN[C@H](C#Cc2cc3ncnc(Nc4ccc(OCc5cccc(F)c5)c(Cl)c4)c3s2)C1)N1CCOCC1
Resp: 4.15

###

Measured inhibition, listed per entry for reference.
# assay-target: Rho-associated protein kinase 1 (Homo sapiens) (UniProt Q13464);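 also: reported values are mean percent inhibition of ROCK1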
# condition-description: at 1 µM
Hi! Could you send only the number? It should be in %, unit omitted.

Previously resolved entries follow.
structure-smiles: CS(=O)(=O)CCNCc1ccc(-c2ccc3ncnc(Nc4ccc(OCc5cccc(C(F)(F)F)c5)cc4)c3c2)o1
measurement-units: %
inhibition: 3.01

structure-smiles: CNC(=O)c1sc(-n2cnc3cc(OC)c(OC)cc32)cc1OCc1ccccc1C(F)(F)F
measurement-units: %
inhibition: 0.26

structure-smiles: CCS(=O)(=O)c1ccc(OC)c(Nc2ncc(-c3cccc(F)c3)o2)c1
measurement-units: %
inhibition: 2.95

Req: Data request, read-out inhibition, for COC(=O)Nc1nc2cc(Oc3ccc(NC(=O)Nc4ccccc4)cc3)ccc2[nH]1
Resp: 6.47

Req: Data request, read-out inhibition, for OCCCNc1nccc(-c2c(-c3ccc(F)cc3)nn3cc(C(F)(F)F)ccc23)n1
Resp: 2.58

Req: Data request, read-out inhibition, for Cc1ccc(-c2cc3c(NC(=O)C4CC4)ncnc3o2)cc1
Resp: 2.27

Req: Data request, read-out inhibition, for O=C(O[C@H]1CN[C@H](C#Cc2cc3ncnc(Nc4ccc5c(cnn5Cc5ccccc5)c4)c3s2)C1)N1CCOCC1
Resp: -2.07

Req: Data request, read-out inhibition, for COc1c(C(N)=O)cc(-c2ccc(Cl)cc2)cc1-c1ccc(S(N)(=O)=O)cc1
Resp: 3.19

Req: Data request, read-out inhibition, for COc1ccc(Nc2ncc(-c3ccccc3)o2)cc1OC
Resp: 2.03

###

# assay-target: Serine/threonine-protein kinase B-raf (Homo sapiens) (UniProt P15056);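 also: reported value is the mean percent inhibition of BRAF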
# Sequence (P15056 whole entry): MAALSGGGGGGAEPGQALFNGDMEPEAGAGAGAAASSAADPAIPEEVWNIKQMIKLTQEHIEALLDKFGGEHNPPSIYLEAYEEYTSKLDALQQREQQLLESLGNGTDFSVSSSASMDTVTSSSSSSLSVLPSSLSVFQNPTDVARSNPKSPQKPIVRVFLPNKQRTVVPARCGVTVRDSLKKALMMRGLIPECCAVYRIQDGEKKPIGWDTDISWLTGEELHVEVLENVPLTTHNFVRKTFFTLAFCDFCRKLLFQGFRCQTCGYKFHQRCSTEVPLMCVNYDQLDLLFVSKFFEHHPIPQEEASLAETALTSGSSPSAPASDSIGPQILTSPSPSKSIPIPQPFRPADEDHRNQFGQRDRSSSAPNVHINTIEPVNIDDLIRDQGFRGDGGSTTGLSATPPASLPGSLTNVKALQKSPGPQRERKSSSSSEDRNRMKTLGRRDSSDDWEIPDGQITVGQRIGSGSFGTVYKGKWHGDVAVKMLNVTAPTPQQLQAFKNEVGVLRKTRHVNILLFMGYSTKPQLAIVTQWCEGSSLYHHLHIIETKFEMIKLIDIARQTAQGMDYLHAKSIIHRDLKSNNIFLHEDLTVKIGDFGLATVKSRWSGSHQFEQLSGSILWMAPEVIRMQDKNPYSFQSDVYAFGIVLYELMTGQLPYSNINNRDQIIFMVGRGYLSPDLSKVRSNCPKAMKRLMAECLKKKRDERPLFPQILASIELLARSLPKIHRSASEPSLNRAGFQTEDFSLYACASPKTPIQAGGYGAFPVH
# condition-description: at 1 µM
Rule: inhibition under 7% gives not satisfied, otherwise satisfied.

structure-smiles: CS(=O)(=O)Nc1ccc(-c2ccc3c(NC(=O)C4CC4)n[nH]c3c2)cc1
label-class: not satisfied

structure-smiles: CCCNc1cccc(-n2ncc3c(N/N=C/c4ccncc4)ncnc32)c1
label-class: not satisfied

structure-smiles: CC1(C)CC(n2cnc(-c3ccc(F)cc3)c2-c2ccnc(N)n2)CC(C)(C)N1
label-class: not satisfied

structure-smiles: N#Cc1cccc(Nc2ncc(-c3ccccc3)o2)c1
label-class: not satisfied

structure-smiles: CS(=O)(=O)Nc1ccc(-c2cc(-c3ccccc3)cc(C(N)=O)c2N)cc1
label-class: not satisfied

Req: Hi team, for COc1ccc(Nc2ncc(-c3ccccc3)o2)cc1OC , is the recorded inhibition at or above 7%?
Resp: not satisfied

Req: Hi team, for Cc1c2ccc(N(C)c3ccnc(Nc4cccc(S(N)(=O)=O)c4)n3)cc2nn1C , is the recorded inhibition at or above 7%?
Resp: satisfied

Req: Hi team, for CN(C)CCNC(=O)Nc1ccc(N(C)c2ccnc(Nc3ccc(CS(C)(=O)=O)cc3)n2)cc1 , is the recorded inhibition at or above 7%?
Resp: not satisfied

Req: Hi team, for NS(=O)(=O)c1ccc(N/N=C2\C(=O)Nc3ccc(C(=O)NCc4ccncc4)cc32)cc1 , is the recorded inhibition at or above 7%?
Resp: satisfied

###

# assay-target: Tyrosine-protein kinase Fes/Fps (Homo sapiens)
# condition-description: at 0.1 µM
# Description: GSK_PKIS: FES mean inhibition at 0.1 uM [Nanosyn]
Measured inhibition, listed per entry for reference.
Hi! Could you send only the number? It should be in %, unit omitted.

molecule: O=C1Nc2ccccc2/C1=C1\CCc2cc(O)ccc21
inhibition / %: 4.19

Req: Can you look up inhibition on Tyrosine-protein kinase Fes/Fps (Homo sapiens) for COc1cc(Nc2ncc(-c3ccccc3)o2)cc(OC)c1 ?
Resp: 3.89

Req: Can you look up inhibition on Tyrosine-protein kinase Fes/Fps (Homo sapiens) for CC1=C(C(=O)Nc2ccc3[nH]nc(C)c3c2)C(c2ccc(C(F)(F)F)cc2)CC(=O)N1 (stereo unspecified) ?
Resp: 1.58

Req: Can you look up inhibition on Tyrosine-protein kinase Fes/Fps (Homo sapiens) for NS(=O)(=O)c1ccc(N/N=C2\C(=O)Nc3ccc(C(=O)NCc4ccncc4)cc32)cc1 ?
Resp: 2.4

Req: Can you look up inhibition on Tyrosine-protein kinase Fes/Fps (Homo sapiens) for O=C(O[C@H]1CN[C@H](C#Cc2cc3ncnc(Nc4ccc5c(cnn5Cc5ccccc5)c4)c3s2)C1)N1CCOCC1 ?
Resp: -0.09

###

# assay-target: Mast/stem cell growth factor receptor Kit (Homo sapiens) (UniProt P10721)
# Sequence (P10721 whole entry): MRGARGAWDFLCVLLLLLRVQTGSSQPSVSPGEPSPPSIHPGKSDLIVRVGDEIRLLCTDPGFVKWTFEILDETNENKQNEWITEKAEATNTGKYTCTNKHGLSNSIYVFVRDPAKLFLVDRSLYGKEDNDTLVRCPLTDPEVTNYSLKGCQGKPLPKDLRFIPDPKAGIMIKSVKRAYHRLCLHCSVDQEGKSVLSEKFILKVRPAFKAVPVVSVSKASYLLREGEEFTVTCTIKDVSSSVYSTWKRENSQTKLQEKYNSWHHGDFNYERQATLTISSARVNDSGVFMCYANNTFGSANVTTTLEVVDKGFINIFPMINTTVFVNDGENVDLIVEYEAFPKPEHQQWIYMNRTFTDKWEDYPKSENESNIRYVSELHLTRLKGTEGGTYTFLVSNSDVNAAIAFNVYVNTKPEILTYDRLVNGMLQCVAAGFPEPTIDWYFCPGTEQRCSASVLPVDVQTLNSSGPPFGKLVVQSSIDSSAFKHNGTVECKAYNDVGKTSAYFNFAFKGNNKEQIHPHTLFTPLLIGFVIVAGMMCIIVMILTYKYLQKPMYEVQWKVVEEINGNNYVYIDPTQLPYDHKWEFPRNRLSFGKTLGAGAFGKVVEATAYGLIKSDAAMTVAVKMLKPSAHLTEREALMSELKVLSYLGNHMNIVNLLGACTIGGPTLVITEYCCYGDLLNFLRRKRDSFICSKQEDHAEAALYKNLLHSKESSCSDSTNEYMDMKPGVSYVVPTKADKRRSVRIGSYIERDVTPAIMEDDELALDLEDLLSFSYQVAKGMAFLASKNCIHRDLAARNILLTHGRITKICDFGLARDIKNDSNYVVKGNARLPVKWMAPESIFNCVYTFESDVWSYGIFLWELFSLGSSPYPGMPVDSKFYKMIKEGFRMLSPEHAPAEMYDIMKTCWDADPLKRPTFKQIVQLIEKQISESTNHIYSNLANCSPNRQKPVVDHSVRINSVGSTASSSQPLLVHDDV
# condition-description: at 1 µM
Rule: inhibition under 9% gives NO, otherwise YES.

Illustrative cases are given below, each with its answer.
structure-smiles: c1cnn2ncc(-c3ccnc(NCCCN4CCOCC4)n3)c2c1
assay-target: Mast/stem cell growth factor receptor Kit (Homo sapiens) (UniProt P10721)
label-class: NO

structure-smiles: COc1cc(N2CCN(C(C)C)CC2)ccc1Nc1nc(Nc2cccc3ncccc23)c2cc[nH]c2n1
assay-target: Mast/stem cell growth factor receptor Kit (Homo sapiens) (UniProt P10721)
label-class: NO

structure-smiles: NS(=O)(=O)c1ccc(N/N=C2\C(=O)Nc3cccc(CCc4ccncc4)c32)cc1
assay-target: Mast/stem cell growth factor receptor Kit (Homo sapiens) (UniProt P10721)
label-class: YES

structure-smiles: Fc1ccc(Nc2nccc(-c3c(-c4ccc(C(F)(F)F)cc4)nn4ncccc34)n2)cc1F
assay-target: Mast/stem cell growth factor receptor Kit (Homo sapiens) (UniProt P10721)
label-class: NO

structure-smiles: CCCNc1cccc(-n2ncc3c(N/N=C/c4ccncc4)ncnc32)c1
assay-target: Mast/stem cell growth factor receptor Kit (Homo sapiens) (UniProt P10721)
label-class: YES

structure-smiles: CCN1CCC(C(=O)Nc2n[nH]c3nnc(-c4cccc(F)c4F)cc23)CC1
assay-target: Mast/stem cell growth factor receptor Kit (Homo sapiens) (UniProt P10721);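 also: values given as mean inhibition of KIT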
label-class: NO

Next, consider the following compound.
Req: Hi team, for CS(=O)(=O)Nc1ccc(-c2cc(-c3ccccc3)cc(C(N)=O)c2N)cc1 , is the recorded inhibition at or above 9%?
Resp: YES

###

# assay-target: Vascular endothelial growth factor receptor 1 (Homo sapiens) (UniProt P17948)
# Sequence (P17948 whole entry): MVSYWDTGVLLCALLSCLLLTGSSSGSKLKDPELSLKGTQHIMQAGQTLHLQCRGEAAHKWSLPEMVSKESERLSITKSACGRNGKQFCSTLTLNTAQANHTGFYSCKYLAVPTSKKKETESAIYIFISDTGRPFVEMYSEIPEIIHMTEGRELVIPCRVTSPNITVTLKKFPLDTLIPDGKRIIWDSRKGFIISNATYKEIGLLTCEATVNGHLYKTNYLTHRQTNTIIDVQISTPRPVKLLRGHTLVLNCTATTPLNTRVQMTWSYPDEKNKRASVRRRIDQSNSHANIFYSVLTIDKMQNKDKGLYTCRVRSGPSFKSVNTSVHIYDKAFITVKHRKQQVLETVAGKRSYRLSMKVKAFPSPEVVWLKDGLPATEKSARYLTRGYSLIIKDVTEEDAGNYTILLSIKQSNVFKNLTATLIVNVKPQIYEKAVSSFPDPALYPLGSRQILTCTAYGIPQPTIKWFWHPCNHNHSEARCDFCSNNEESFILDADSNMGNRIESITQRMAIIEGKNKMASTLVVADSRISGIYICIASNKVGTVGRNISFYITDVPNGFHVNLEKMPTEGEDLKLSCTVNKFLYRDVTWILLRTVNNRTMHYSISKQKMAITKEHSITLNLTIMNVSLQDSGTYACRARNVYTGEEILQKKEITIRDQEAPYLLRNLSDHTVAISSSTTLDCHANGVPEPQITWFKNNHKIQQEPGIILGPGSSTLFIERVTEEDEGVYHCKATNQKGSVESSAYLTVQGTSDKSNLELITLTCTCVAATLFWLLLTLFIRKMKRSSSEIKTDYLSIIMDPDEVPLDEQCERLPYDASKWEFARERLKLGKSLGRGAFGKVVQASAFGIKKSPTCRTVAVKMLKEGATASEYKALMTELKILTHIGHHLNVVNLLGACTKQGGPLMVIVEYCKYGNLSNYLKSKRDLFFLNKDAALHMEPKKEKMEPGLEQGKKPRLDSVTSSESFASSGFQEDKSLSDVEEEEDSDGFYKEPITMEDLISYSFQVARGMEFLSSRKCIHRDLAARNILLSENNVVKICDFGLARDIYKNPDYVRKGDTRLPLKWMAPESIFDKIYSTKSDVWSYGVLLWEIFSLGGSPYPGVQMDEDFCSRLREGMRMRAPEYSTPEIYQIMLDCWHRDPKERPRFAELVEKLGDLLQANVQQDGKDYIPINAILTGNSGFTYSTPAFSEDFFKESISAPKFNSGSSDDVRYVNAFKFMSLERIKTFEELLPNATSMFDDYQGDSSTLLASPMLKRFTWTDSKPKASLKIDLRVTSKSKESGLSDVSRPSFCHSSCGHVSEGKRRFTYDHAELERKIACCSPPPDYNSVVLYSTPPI
# condition-description: at 1 µM
# Description: GSK_PKIS: FLT1 mean inhibition at 1 uM [Nanosyn]
Measured inhibition, listed per entry for reference.
Hi! Could you send only the number? It should be in %, unit omitted.

compound: COC(=O)Nc1nc2cc(Oc3ccc(NC(=O)Nc4ccccc4)cc3)ccc2[nH]1
assay-target: Vascular endothelial growth factor receptor 1 (Homo sapiens) (UniProt P17948)
measurement-units: %
result: 22.1
--
compound: CC1(C)CC(n2cnc(-c3ccc(F)cc3)c2-c2ccnc(N)n2)CC(C)(C)N1
assay-target: Vascular endothelial growth factor receptor 1 (Homo sapiens) (UniProt P17948)
measurement-units: %
result: 1.59
--
compound: CCn1c(-c2nonc2N)nc2cncc(C(=O)NCCNC)c21
assay-target: Vascular endothelial growth factor receptor 1 (Homo sapiens) (UniProt P17948)
measurement-units: %
result: 3.5
--
compound: CCOc1ccc2c(-c3ccnc(Nc4cc(OC)cc(C(F)(F)F)c4)n3)cnn2n1
assay-target: Vascular endothelial growth factor receptor 1 (Homo sapiens) (UniProt P17948)
measurement-units: %
result: 5.65
--
compound: CS(=O)(=O)Nc1ccc(-c2ccc3c(NC(=O)C4CC4)n[nH]c3c2)cc1
assay-target: Vascular endothelial growth factor receptor 1 (Homo sapiens) (UniProt P17948)
measurement-units: %
result: 3.04

Req: Data request, read-out inhibition, for CS(=O)(=O)CCNCc1ccc(-c2ccc3ncnc(Nc4ccc(OCc5cccc(C(F)(F)F)c5)cc4)c3c2)o1
Resp: 2.94
